Species: Rattus norvegicus
PROCEDURE TEXT: Open TG-GATES - Regimen: Daily Repeat
Format: toxicity, organism-based, Sprague-Dawley
Set-up: regimen Daily Repeat, gender Male, age 6 weeks
REPORTED CONDITIONS: in vivo, po, 10 mg/kg, […], tissue Kidney, route gavage, dose level Low, time 7 day
OBSERVED PROPERTY: KIDNEY_L (g)

                                   compound  reported_measurement
0  CN(C)CCCN1c2ccccc2CCc2ccccc21 [IMIPRAMINE]                   1.1
1                CN(C)CCN(Cc1cccs1)c1ccccn1                     1
2  CC(C)OC(=O)C(C)(C)Oc1ccc(C(=O)c2ccc(Cl)cc2)cc1 [FENOFIBRATE]                   1.1
3  CC1=C(/C=C/C(C)=C/C=C/C(C)=C/CO)C(C)(C)CCC1 [RETINOL]                   1.1

----------
Organism: Rattus norvegicus
PROCEDURE TEXT: Open TG-GATES - Regimen: Daily Repeat
Type: toxicity, organism-based, Sprague-Dawley
Set-up: regimen Daily Repeat, gender Male, age 6 weeks
REPORTED CONDITIONS: in vivo, po, 300 mg/kg, […], tissue Plasma, route gavage, dose level Middle, time 7 day
// values below are reported ALP

COMPOUND	MEASUREMENT UNITS	ALP
COC1=CC(=O)C[C@@H](C)[C@]12Oc1c(Cl)c(OC)cc(OC)c1C2=O	IU/L	848
COc1ccc2[nH]c([S+]([O-])Cc3ncc(C)c(OC)c3C)nc2c1 (stereo not given)	IU/L	924.4
CCOc1ccc(NC(=O)CC(C)O)cc1 (stereo not given)	IU/L	1676.6
CCOC(=O)CCC(=O)O[C@H]1[C@H](O[C@@H]2[C@@H](C)[C@H](O[C@H]3C[C@@](C)(OC)[C@@H](O)[C@H](C)O3)[C@@H](C)C(=O)O[C@H](CC)[C@@](C)(O)[C@H](O)[C@@H](C)C(=O)[C@H](C)C[C@@]2(C)O)O[C@H](C)C[C@@H]1N(C)C [ERYTHROMYCIN ETHYLSUCCINATE]	IU/L	1819.6
NC(N)=Nc1nc(CSCCC(N)=NS(N)(=O)=O)cs1	IU/L	921.4

----------
Species on record: Rattus norvegicus
PROCEDURE TEXT: Open TG-GATES - Regimen: Daily Repeat
Format: toxicity, organism-based, Sprague-Dawley
Parameters: regimen Daily Repeat, gender Male, age 6 weeks
REPORTED CONDITIONS: in vivo, po, 0 mg/kg, […], tissue Plasma, route gavage, dose level Control, time 28 day
Returns one of Yes or No; Yes when ALP is >= 900 IU/L.

COMPOUND	LABEL
NNC(=O)c1ccncc1	No
COc1ccc2[nH]c([S+]([O-])Cc3ncc(C)c(OC)c3C)nc2c1 (stereo not drawn)	No
CN1C(=O)CN=C(c2ccccc2)c2cc(Cl)ccc21	No
CCOC(=O)CCC(=O)O[C@H]1[C@H](O[C@@H]2[C@@H](C)[C@H](O[C@H]3C[C@@](C)(OC)[C@@H](O)[C@H](C)O3)[C@@H](C)C(=O)O[C@H](CC)[C@@](C)(O)[C@H](O)[C@@H](C)C(=O)[C@H](C)C[C@@]2(C)O)O[C@H](C)C[C@@H]1N(C)C [ERYTHROMYCIN ETHYLSUCCINATE]	Yes
CN(C)CCN(Cc1cccs1)c1ccccn1	Yes
O=C(CCCN1CCC(O)(c2ccc(Cl)cc2)CC1)c1ccc(F)cc1	No
CC1=C(/C=C/C(C)=C/C=C/C(C)=C/CO)C(C)(C)CCC1	Yes

----------
Species: Rattus norvegicus
PROCEDURE TEXT: Open TG-GATES - Regimen: Single
Type: toxicity, organism-based, Sprague-Dawley
Parameters: regimen Single, gender Male, age 6 weeks
REPORTED CONDITIONS: in vivo, po, 300 mg/kg, 6 h, tissue Plasma, route gavage, dose level Middle

COMPOUND	MEASUREMENT UNITS	LDH
COC1=CC(=O)C[C@@H](C)[C@]12Oc1c(Cl)c(OC)cc(OC)c1C2=O	IU/L	139.2
COc1ccc2[nH]c([S+]([O-])Cc3ncc(C)c(OC)c3C)nc2c1 (centres undefined)	IU/L	171.2
NC(N)=Nc1nc(CSCCC(N)=NS(N)(=O)=O)cs1	IU/L	177.2
CCOC(=O)CCC(=O)O[C@H]1[C@H](O[C@@H]2[C@@H](C)[C@H](O[C@H]3C[C@@](C)(OC)[C@@H](O)[C@H](C)O3)[C@@H](C)C(=O)O[C@H](CC)[C@@](C)(O)[C@H](O)[C@@H](C)C(=O)[C@H](C)C[C@@]2(C)O)O[C@H](C)C[C@@H]1N(C)C [ERYTHROMYCIN ETHYLSUCCINATE]	IU/L	160.2

----------
Species: Rattus norvegicus
PROCEDURE TEXT: Open TG-GATES - Regimen: Single
Assay type: toxicity, organism-based, Sprague-Dawley
Design: regimen Single, gender Male, age 6 weeks
REPORTED CONDITIONS: in vivo, po, 0 mg/kg, 6 h, tissue Blood, route gavage, dose level Control
OBSERVED PROPERTY: Hb (g/dL)

COMPOUND	OBSERVED PROPERTY	REPORTED MEASUREMENT
CCOC(=O)CCC(=O)O[C@H]1[C@H](O[C@@H]2[C@@H](C)[C@H](O[C@H]3C[C@@](C)(OC)[C@@H](O)[C@H](C)O3)[C@@H](C)C(=O)O[C@H](CC)[C@@](C)(O)[C@H](O)[C@@H](C)C(=O)[C@H](C)C[C@@]2(C)O)O[C@H](C)C[C@@H]1N(C)C [ERYTHROMYCIN ETHYLSUCCINATE]	Hb	13.8
CN(C)CCCN1c2ccccc2CCc2ccc(Cl)cc21	Hb	13.7
COc1ccc2[nH]c([S+]([O-])Cc3ncc(C)c(OC)c3C)nc2c1 (configuration not stated)	Hb	13.6
Cc1ccc(C)c(OCCCC(C)(C)C(=O)O)c1	Hb	13.9
CC1=C(/C=C/C(C)=C/C=C/C(C)=C/CO)C(C)(C)CCC1	Hb	13.5
C[C@@H]1C[C@H]2[C@@H]3CCC4=CC(=O)C=C[C@]4(C)[C@@]3(F)[C@@H](O)C[C@]2(C)[C@@]1(O)C(=O)CO	Hb	13.3
CCCNC(=O)NS(=O)(=O)c1ccc(Cl)cc1 [CHLORPROPAMIDE]	Hb	13.2
CCOc1ccc(NC(=O)CC(C)O)cc1 (configuration not stated)	Hb	13.3
COc1cc2c(c(OC)c1OC)-c1ccc(OC)c(=O)cc1[C@@H](NC(C)=O)CC2	Hb	13.1
NNC(=O)c1ccncc1	Hb	13.5
CN(C)CCN(Cc1cccs1)c1ccccn1	Hb	12.6
COC1=CC(=O)C[C@@H](C)[C@]12Oc1c(Cl)c(OC)cc(OC)c1C2=O	Hb	13.8
O=C(CCCN1CCC(O)(c2ccc(Cl)cc2)CC1)c1ccc(F)cc1	Hb	13.6
CC/C(=C(\c1ccccc1)c1ccc(OCCN(C)C)cc1)c1ccccc1	Hb	13.2
CN(C)CCCN1c2ccccc2CCc2ccccc21	Hb	12.8
CN1C(=O)CN=C(c2ccccc2)c2cc(Cl)ccc21	Hb	13.8
NC(N)=Nc1nc(CSCCC(N)=NS(N)(=O)=O)cs1	Hb	13.4

----------
Organism: Rattus norvegicus
PROCEDURE TEXT: Open TG-GATES - Regimen: Single
Format: toxicity, organism-based, Sprague-Dawley
Set-up: regimen Single, gender Male, age 6 weeks
REPORTED CONDITIONS: in vivo, po, 0 mg/kg, 6 h, tissue Blood, route gavage, dose level Control
Items are presented alongside their recorded MCHC.

COMPOUND	MEASUREMENT UNITS	MCHC
CC(C)OC(=O)C(C)(C)Oc1ccc(C(=O)c2ccc(Cl)cc2)cc1 [FENOFIBRATE]	%	32.4
CCOC(=O)CCC(=O)O[C@H]1[C@H](O[C@@H]2[C@@H](C)[C@H](O[C@H]3C[C@@](C)(OC)[C@@H](O)[C@H](C)O3)[C@@H](C)C(=O)O[C@H](CC)[C@@](C)(O)[C@H](O)[C@@H](C)C(=O)[C@H](C)C[C@@]2(C)O)O[C@H](C)C[C@@H]1N(C)C [ERYTHROMYCIN ETHYLSUCCINATE]	%	32.8
CCOc1ccc(NC(=O)CC(C)O)cc1 (configuration not stated)	%	33.3
CC1=C(/C=C/C(C)=C/C=C/C(C)=C/CO)C(C)(C)CCC1	%	34.9
CC/C(=C(\c1ccccc1)c1ccc(OCCN(C)C)cc1)c1ccccc1	%	33.4
CN(C)CCCN1c2ccccc2CCc2ccc(Cl)cc21	%	32.3
O=C(CCCN1CCC(O)(c2ccc(Cl)cc2)CC1)c1ccc(F)cc1	%	33.4
